# Assay Comment: inhibition of NOD2-driven NF-kB reporter – cell-based, luminescence, uHTS, HEK293 (AID 1566)
# Recorded Conditions: HEK293 NOD2/NF-kB luciferase reporter, at 4 µM
Hit rate of the full screen: of about 290,000 compounds, about 1,800 (0.62%) were called active. Rule as the data show it: active = inhibition above about 50%; inactive = the rest. This excerpt belongs to a sample that is enriched for actives.
Please reply with one of these outcomes: true = active, false = inactive

Molecule	Assigned Category
COc1ccc(S(=O)(=O)N/N=C\c2ccc([N+](=O)[O-])o2)c(OC)c1	true
Cc1oc(-c2ccc3c(c2)OCCO3)cc1C(=O)NCC(=O)O	false

Req: For O=C(NCCCNc1ccnc2cc(Cl)ccc12)c1ccccc1F , what call appears in the results of this test?
Resp: false

Req: Please give the result for O=C(NCCNc1ccnc2cc(Cl)ccc12)c1ccccc1F too.
Resp: true

Req: Please give the result for O=C(NC1CCCC1)C(NS(=O)(=O)c1cccc2nsnc12)c1ccccc1 (stereo unspecified) too.
Resp: false

Req: Please give the result for CC(=O)N/C(=C\c1ccc2c(c1)OCO2)C(=O)NC(C(=O)O)c1ccccc1 (stereo unspecified) too.
Resp: false

Req: Please give the result for O=C(NC1=C(Nc2ccc(Cl)cc2)C(=O)c2ccccc2C1=O)c1ccccc1 too.
Resp: false

====

# Assay Comment: inhibition of NOD2-driven NF-kB reporter – cell-based, luminescence, uHTS, HEK293 (AID 1566)
# Recorded Conditions: HEK293 NOD2/NF-kB luciferase reporter, at 4 µM
Out of some 290,000 compounds screened, about 1,800 (0.62%) were called active. Cut-off read from the data, not from the text of the source: active = inhibition above about 50%; inactive = the rest. This excerpt belongs to a sample that is enriched for actives.
Please reply with one of these outcomes: Y for active, N for inactive

Example entries begin here.
Compound	Assigned Category
Cc1cc(C(=O)NNC(=S)NCC(C)C)no1	N
CC1CCN(c2ccc(S(=O)(=O)N3CCC(C)CC3)cc2N)CC1	Y
CC1CCN(S(=O)(=O)c2ccc(S(=O)(=O)N3CCCC3)cc2)CC1	N
Cc1c(Br)c([N+](=O)[O-])nn1CC(=O)Nc1ccc2nc3n(c(=O)c2c1)CCCC3	N
COc1ccccc1-n1c(SCC(=O)N2CCOCC2)nc2ccccc2c1=O	N

Req: For COc1ccc(OC)c(NC(=O)CCCC(=O)NC2CCCCC2)c1 , what call appears in the results of this test?
Resp: N

Req: Please give the result for O=C(c1ccccc1)c1coc2c1C(=O)c1ccccc1C2=O too.
Resp: N

====

# Assay Comment: inhibition of NOD2-driven NF-kB reporter – cell-based, luminescence, uHTS, HEK293 (AID 1566)
# Recorded Conditions: HEK293 NOD2/NF-kB luciferase reporter, at 4 µM
Screen size: about 290,000 compounds; about 1,800 (0.62%) were called active. No stated cut-off is given here; in the data, active means inhibition above about 50%; inactive means the rest. For the sample, actives were picked, then their nearest neighbours and some compounds at random.
Please reply with one of these outcomes: active, inactive

Example entries begin here.
Molecule	Assigned Category
Cc1ccc(NC(=O)C(C)Sc2n[nH]c(CNc3ccccc3)n2)cc1 (centres undefined)	inactive
CC(=O)N1CCN(c2ccc(NC(=S)NC(=O)COc3ccc(C(C)(C)C)cc3)cc2)CC1	active

Req: For CCCCN1C=CC(=C2C(=O)c3ccccc3C2=O)C=C1 , what call appears in the results of this test?
Resp: active

Req: Please give the result for CCCN(CCC)c1ncnc2c1cnn2-c1ccc(OC)cc1 too.
Resp: inactive

Req: Please give the result for CCCCCCN1C=CC(=C2C(=O)c3ccccc3C2=O)C=C1 too.
Resp: inactive

====

# Assay Comment: inhibition of NOD2-driven NF-kB reporter – cell-based, luminescence, uHTS, HEK293 (AID 1566)
# Recorded Conditions: HEK293 NOD2/NF-kB luciferase reporter, at 4 µM, hits give high values
Hit rate of the full screen: of about 290,000 compounds, about 1,800 (0.62%) were called active. The entries come from a sample that favours actives as a whole.
Quantity Name: inhibition (%)
Provide only the numeric value, understood in %.

Example molecules with recorded inhibition:
Molecule	inhibition / %
CCOC(=O)/C(C#N)=C1/SC(CC)C(=O)N1c1ccc(Br)cc1 (stereo unspecified)	-8.1
O=C(Nc1c(F)cc(F)cc1Br)c1cccnc1	-9.2
CN(C)S(=O)(=O)c1ccc(C(=O)Nc2cc3c(cc2C(=O)O)OCCCO3)cc1	4
CCOC(=O)C(=CNc1ccc(C#N)cc1)C(=O)OCC	8.2
O=C(CN1CCN(C(c2ccccc2)c2ccccc2)CC1)Nc1ccc(N2CCOCC2)cc1	6.9
O=C(Nc1cccc(S(=O)(=O)Nc2ccc(Cl)cc2)c1)c1ccc2c(c1)OCCO2	55.7

Kindly consider the entry below.
Req: What value of inhibition has been recorded for this entry: CCOC(=O)C(=CNc1ccc(NC2=NCC(C)(C)S2)cc1)C(=O)OCC
Resp: 34.9

====

# Assay Comment: inhibition of NOD2-driven NF-kB reporter – cell-based, luminescence, uHTS, HEK293 (AID 1566)
# Recorded Conditions: HEK293 NOD2/NF-kB luciferase reporter, at 4 µM, hits give high values
About 1,800 (0.62%) of roughly 290,000 compounds were called active. This excerpt belongs to a sample that is enriched for actives.
Quantity Name: inhibition (%)
Provide only the numeric value, understood in %.

Example molecules with recorded inhibition:
Molecule	inhibition / %
COC(=O)c1sc(S(=O)(=O)N2CCC(C(=O)O)CC2)c(C(=O)OC)c1C	-0.8
O=C1/C(=C\c2cccc(O)c2O)SC(=S)N1Cc1ccccc1	7.8
COc1ccc(/C=N/Nc2nnc(-c3ncc[nH]3)c3ccccc23)cc1	-81.3
COC(=O)N1C(=O)[C@](c2ccsc2)(C(C)C)N1C(=O)OC	32.8

Req: What value of inhibition has been recorded for this entry: CCOC(=O)N1CCN(C(=O)c2ccc3c(c2)NC(=O)/C(=C/c2ccccc2)S3)CC1
Resp: 9.6

Req: Please give the result for Oc1ccc2ccccc2c1/C=N/Nc1nnc(-c2ncc[nH]2)c2ccccc12 too.
Resp: 66.3

Req: Please give the result for COc1ccccc1N1CCN(C(=O)c2cc(C(=O)N3CCN(c4ccccc4OC)CC3)cc([N+](=O)[O-])c2)CC1 too.
Resp: 3.5

Req: Please give the result for Clc1ccc(/C=N/Nc2nnc(-c3ncc[nH]3)c3ccccc23)cc1 too.
Resp: -40.1

====

# Assay Comment: inhibition of NOD2-driven NF-kB reporter – cell-based, luminescence, uHTS, HEK293 (AID 1566)
# Recorded Conditions: HEK293 NOD2/NF-kB luciferase reporter, at 4 µM, hits give high values
The whole screen tested about 290,000 compounds, of which about 1,800 (0.62%) were called active. The sample as a whole holds a higher share of actives than the screen did.
Parameter: inhibition. Scope: all listed entries.
Provide only the numeric value, understood in %.

Example molecules with recorded inhibition:
Cc1cc(C(=O)COC(=O)c2ccc3c(c2)OCO3)c(C)n1Cc1cccs1 -8.7
C=CCn1c(C)cc(C(=O)COc2ccc(S(=O)(=O)N3CCCC3)cc2[N+](=O)[O-])c1C -1.6

Req: What value of inhibition has been recorded for this entry: CCOC(=O)c1ccc(CC(=O)c2ccc(O)c(O)c2O)o1
Resp: 8.3

Req: Please give the result for Cc1cc(C(=O)COC(=O)c2ccccc2O)c(C)n1Cc1cccs1 too.
Resp: 89.6

====

# Assay Comment: inhibition of NOD2-driven NF-kB reporter – cell-based, luminescence, uHTS, HEK293 (AID 1566)
# Recorded Conditions: HEK293 NOD2/NF-kB luciferase reporter, at 4 µM
The whole screen tested about 290,000 compounds, of which about 1,800 (0.62%) were called active. No stated cut-off is given here; in the data, active means inhibition above about 50%; inactive means the rest. For the sample, actives were picked, then their nearest neighbours and some compounds at random.
Please reply with one of these outcomes: Yes for active, No for inactive

Molecule	Assigned Category
COc1cccc(Oc2c(C)oc3c(CN4CCCCC4)c(O)ccc3c2=O)c1	No
Cc1cc(C2=NNC(=NC3CC3)SC2)c(C)n1-c1ccccc1	Yes
Cc1cc(C2=NNC(=NC3CC3)SC2)c(C)n1-c1c(C)n(C)n(-c2ccccc2)c1=O	No
Cc1ccc(-n2c(C)cc(C3=NNC(=NC4CC4)SC3)c2C)cc1C	No
Cc1cc(C2=NNC(=NC3CC3)SC2)c(C)n1-c1ccccc1F	Yes

Req: For CCN=C1NN=C(c2ccc(C)cc2)CS1 , what call appears in the results of this test?
Resp: No

====

# Assay Comment: inhibition of NOD2-driven NF-kB reporter – cell-based, luminescence, uHTS, HEK293 (AID 1566)
# Recorded Conditions: HEK293 NOD2/NF-kB luciferase reporter, at 4 µM, hits give high values
Screen size: about 290,000 compounds; about 1,800 (0.62%) were called active. This excerpt belongs to a sample that is enriched for actives.
Quantity Name: inhibition (%)
Provide only the numeric value, understood in %.

Example compounds with recorded inhibition:
Compound	inhibition, %
O=C(Nc1c(-c2ccc(F)cc2)nc2ccccn12)c1ccc(F)cc1	79.7
CC(=O)Nc1c(-c2ccc(F)cc2)nc2ccccn12	-10.8
CC(C)CNC(=O)CSc1nc2scc(-c3ccccc3)c2c(=O)[nH]1	37.7
CC(C)(C)NC(=O)CSc1nc2scc(-c3ccccc3)c2c(=O)[nH]1	25.9
O=C(NNc1ccc(F)cc1)c1c(F)cccc1Cl	-2.7

Req: What value of inhibition has been recorded for this entry: O=C(Nc1ccc2snnc2c1)N1CCCCC1
Resp: 3.3

Req: Please give the result for COc1ccccc1/C=C/C(C)=O too.
Resp: -13.4

Req: Please give the result for O=C(NC(Cc1ccc2c(c1)OCO2)C(=O)NC(Cc1ccccc1)C(=O)O)c1ccccc1 (stereo unspecified) too.
Resp: 0

Req: Please give the result for O=C(CNC(=O)c1ccc(Oc2ccccc2)cc1)OC1CCCCC1=O (stereo unspecified) too.
Resp: 10.8

Req: Please give the result for Cc1oc(-c2ccccc2Cl)nc1CN1CCCC1c1ccc(F)cc1 (stereo unspecified) too.
Resp: 0.4

Req: Please give the result for O=C(c1ccc(N2CCN(C(=O)c3ccc(F)cc3F)CC2)cc1)c1cccc(F)c1 too.
Resp: 10.3
